TESTED SYSTEM: human β3-AR (Homo sapiens, UniProt P13945)
Construct: Full-length β3-AR clones (402 amino acids) containing the last 6 amino acids of hβ3-AR; expressed in transfected cells; host or cells: CHO (Chinese hamster ovary) cells
Sequence (P13945 whole entry): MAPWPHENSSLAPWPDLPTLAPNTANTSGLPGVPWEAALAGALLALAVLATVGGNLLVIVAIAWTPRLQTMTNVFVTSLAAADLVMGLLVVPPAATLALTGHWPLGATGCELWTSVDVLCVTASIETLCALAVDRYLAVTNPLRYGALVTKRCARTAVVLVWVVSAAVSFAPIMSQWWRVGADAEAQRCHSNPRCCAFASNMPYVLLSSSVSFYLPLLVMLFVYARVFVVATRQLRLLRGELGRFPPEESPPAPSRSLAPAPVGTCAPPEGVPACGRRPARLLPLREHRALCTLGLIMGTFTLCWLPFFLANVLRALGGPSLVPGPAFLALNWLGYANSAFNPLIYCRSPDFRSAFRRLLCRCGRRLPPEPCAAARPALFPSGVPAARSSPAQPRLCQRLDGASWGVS
ASSAY PROTOCOL: cAMP accumulation (SPA) in CHO cells transfected with human β3-AR
Format: cell-based
REPORTED CONDITIONS: CHO cells transfected with human β3-AR; cAMP by SPA; 30 min at 37° C.; 10^−9 M to 10^−5 M; read-out: EC50(β3)
pEC50: −log10 of the molar value.
MEASURED METRIC: pEC50

- MOLECULE: "CC(Cc1ccc(NC2=NS(=O)(=O)N=C2NCC2(c3ccccc3)CCCC2)cc1)NC[C@H](O)COc1ccc(O)cc1 (stereo partly shown) [Compound 31]"
  pEC50: 8.30
- MOLECULE: "COc1ccc(CCNC2=NS(=O)(=O)N=C2Nc2ccc(CC(C)NC[C@H](O)COc3ccc(O)cc3)cc2)cc1 (stereo partly shown) [Compound 36]"
  pEC50: 8.30
- MOLECULE: "CC(Cc1ccc(NC2=NS(=O)(=O)N=C2NCC2(c3ccccc3)CCCC2)cc1)NC[C@H](O)COc1ccc(OCc2ccccc2)cc1 (stereo partly shown) [Compound 30]"
  pEC50: 6.94

A = CCCCCCNC1=NS(=O)(=O)N=C1Nc1cccc(CC(C)NC[C@H](O)c2cccc(Cl)c2)c1 (stereo partly shown) [Compound 9]
B = CC(Cc1ccc(NC2=NS(=O)(=O)N=C2NCCc2ccc(F)cc2)cc1)NC[C@H](O)COc1ccc(O)cc1 (stereo partly shown) [Compound 37]
C = CCCCCCCCNC1=NS(=O)(=O)N=C1Nc1ccc(CC(C)NC[C@H](O)COc2ccc(O)cc2)cc1 (stereo partly shown) [Compound 12]
Challenge: Hey, can you sort those molecules up there by pEC50, smallest first? Write the labels, ordered according to the request.
Response given: A, C, B
(A: 6.69, C: 7.96, B: 8.22)

----------
TESTED SYSTEM: human β3-AR (Homo sapiens)
Construct: Full-length β3-AR clones (402 amino acids) containing the last 6 amino acids of hβ3-AR; expressed in transfected cells; host or cells: CHO (Chinese hamster ovary) cells
ASSAY PROTOCOL: cAMP accumulation (SPA) in CHO cells transfected with human β3-AR
Type: cell-based
REPORTED CONDITIONS: maximal response of compound relative to maximal response of isoproterenol at 10^−5 M; CHO cells transfected with human β3-AR
MEASURED METRIC: IA(β3)

I = CCOC(=O)CCCNC1=NS(=O)(=O)N=C1Nc1ccc(CC(C)NC[C@H](O)COc2ccc(OCc3ccccc3)cc2)cc1 (some centres unmarked)
II = CCCCCCCCCCNc1c(Nc2ccc(CC(C)NC[C@H](O)COc3ccc(O)cc3)cc2)c(=O)c1=O (some centres unmarked)
III = CCCCCCCCCCNC1=NS(=O)(=O)N=C1Nc1ccc(CC(C)NC[C@H](O)COc2cccc3[nH]c4ccccc4c23)cc1 (some centres unmarked)
IV = CCCCCCCCNC1=NS(=O)(=O)N=C1Nc1ccc(CCNC[C@H](O)COc2ccc(OCc3ccccc3)cc2)cc1 [5 (step E)]
Challenge: Order field: IA(β3) | Direction: descending (largest first) Write the labels, ordered according to the request.
Response given: II, I, III, IV
(II: 0.97, I: 0.62, III: 0.36, IV: 0.15)

1 = CCCCCCCCCCNC1=NS(=O)(=O)N=C1Nc1ccc(CC(C)NC[C@H](O)COc2ccc(O)cc2)cc1 (some centres unmarked)
2 = CCCCCCCCNC1=NS(=O)(=O)N=C1Nc1ccc(CC(C)NC[C@H](O)COc2ccc3c(c2)OCO3)cc1 (some centres unmarked)
3 = CCCCCCCCCCNc1c(Nc2ccc(CCCNC[C@H](O)COc3cccc4[nH]c5ccccc5c34)cc2)c(=O)c1=O
Challenge: Descending sort on IA(β3) required. Write the labels, ordered according to the request.
Response given: 1, 2, 3

----------
TESTED SYSTEM: human β3-AR (Homo sapiens, UniProt P13945)
Construct: Full-length β3-AR clones (402 amino acids) containing the last 6 amino acids of hβ3-AR; expressed in transfected cells; host or cells: CHO (Chinese hamster ovary) cells
ASSAY PROTOCOL: cAMP accumulation (SPA) in CHO cells transfected with human β3-AR
Type: cell-based
REPORTED CONDITIONS: maximal response of compound relative to maximal response of isoproterenol at 10^−5 M; CHO cells transfected with human β3-AR
MEASURED METRIC: IA(β3)

Example compounds with recorded IA(β3):
- COMPOUND: "CC(C)(Cc1ccc(NC2=NS(=O)(=O)N=C2NCC(c2ccccc2)c2ccccc2)cc1)NC[C@H](O)COc1ccc(O)cc1"
  MEASURED METRIC: "IA(β3)"
  DATA VALUE: 0.89
- COMPOUND: "CCCCCCNC(=O)Nc1ccc(C2(CNC3=NS(=O)(=O)N=C3Nc3ccc(CC(C)(C)NC[C@@H](O)COc4ccc(OCc5ccccc5)cc4)cc3)CCCC2)cc1 [8 (step H)]"
  MEASURED METRIC: "IA(β3)"
  DATA VALUE: 0.40
- COMPOUND: "CCCCCCCCNC1=NS(=O)(=O)N=C1Nc1ccc(CC(C)(C)NC[C@H](O)COc2ccc(O)cc2)cc1"
  MEASURED METRIC: "IA(β3)"
  DATA VALUE: 1.10
- COMPOUND: "CN(C)c1ccc(C2(CNC3=NS(=O)(=O)N=C3Nc3ccc(CC(C)(C)NC[C@H](O)COc4ccc(O)cc4)cc3)CCCC2)cc1"
  MEASURED METRIC: "IA(β3)"
  DATA VALUE: 0.74
- COMPOUND: "CCCCCCCCCCNC1=NS(=O)(=O)N=C1Nc1ccc(CC(C)NC[C@H](O)c2ccc(O)c(NS(C)(=O)=O)c2)cc1 (some centres unmarked)"
  MEASURED METRIC: "IA(β3)"
  DATA VALUE: 1.27
- COMPOUND: "CCCCCCCCNC1=NS(=O)(=O)N=C1Nc1ccc(CC(C)NC[C@H](O)COc2ccc(O)cc2)cc1 (some centres unmarked)"
  MEASURED METRIC: "IA(β3)"
  DATA VALUE: 1.45

1 = CCOC(=O)CCCNC1=NS(=O)(=O)N=C1Nc1ccc(CC(C)NC[C@H](O)COc2ccc(O)cc2)cc1 (some centres unmarked)
2 = CCCCCCCCNC1=NS(=O)(=O)N=C1Nc1ccc(CC(C)NC[C@H](O)COc2ccc(OCc3ccccc3)cc2)cc1 (some centres unmarked)
Challenge: Looking at recorded values for IA(β3), does 1 or 2 come in lower? // return label of chosen record
Response given: 2
(2: 0.29, 1: 1.17)

----------
MEASURED METRIC: melting point

- COMPOUND: "CCCCCCCCNC1=NS(=O)(=O)N=C1Nc1ccc(CC(C)NC[C@H](O)COc2ccc3c(c2)OCO3)cc1 (stereo partly shown) [Compound 35]"
  melting point: "81 to 86 °C"
- COMPOUND: "CCCCCCNC1=NS(=O)(=O)N=C1Nc1cccc(CC(C)NC[C@H](O)c2cccc(Cl)c2)c1 (stereo partly shown) [Compound 9]"
  melting point: "90 to 96 °C"
- COMPOUND: "CCCCCCCCNC1=NS(=O)(=O)N=C1Nc1ccc(CCNC[C@H](O)COc2ccc(O)cc2)cc1 [Compound 5]"
  melting point: "98 °C (dec.)"

Challenge: What does the record list as melting point for CCCCCCCCNc1c(Nc2ccc(CC(C)NC[C@H](O)COc3ccccc3)cc2)c(=O)c1=O (stereo partly shown) [Compound 24] ?
Response given: 146 to 155 °C

----------
TESTED SYSTEM: human β3-AR (Homo sapiens)
Construct: Full-length β3-AR clones (402 amino acids) containing the last 6 amino acids of hβ3-AR; expressed in transfected cells; host or cells: CHO (Chinese hamster ovary) cells
ASSAY PROTOCOL: cAMP accumulation (SPA) in CHO cells transfected with human β3-AR
Format: cell-based
REPORTED CONDITIONS: CHO cells transfected with human β3-AR; cAMP by SPA; 30 min at 37° C.; 10^−9 M to 10^−5 M; read-out: EC50(β3)
pEC50: −log10 of the molar value.
MEASURED METRIC: pEC50

1 = CCCCCCCCNc1c(Nc2ccc(CC(C)NC[C@H](O)COc3cccc4[nH]c5ccccc5c34)cc2)c(=O)c1=O (stereo partly drawn)
2 = CC(C)(Cc1ccc(NC2=NS(=O)(=O)N=C2NCC(c2ccccc2)c2ccccc2)cc1)NC[C@H](O)COc1ccc(O)cc1
3 = CCCCCCCCNC1=NS(=O)(=O)N=C1Nc1ccc(CC(C)NCC(O)c2cccc(Cl)c2)cc1 (stereo not drawn)
Challenge: Your job: order these 3 records by pEC50, ascending. Write the labels, ordered according to the request.
Response given: 1, 3, 2
(1: 6.63, 3: 7.42, 2: 7.85)
